Let's look at some molecules and their measured IC50.
- Test system: B. subtilis (ATCC 6633)
- PROTOCOL_DETAILS: Antibacterial viability (CFU) assay, IC50
- Assay type: cell-based
- STATED_CONDITIONS: Bacillus subtilis, ATCC6633, B. subtilis (ATCC 6633)

| MOLECULE | IC50 |
| --- | --- |
| COC(=O)C1=C(C)OC(N)=C(C#N)C1c1cccc(O)c1Cl (stereo not drawn) | 23.6 to 36.8 µM |
| CC1=C(C(=O)OCc2ccccc2)C(c2ccc(Cl)cc2Cl)C(C#N)=C(N)O1 (stereo not drawn) | 23.6 to 36.8 µM |
| CC1=C(C(=O)OCc2ccccc2)C(c2ccc(F)cc2)C(C#N)=C(N)O1 (stereo not drawn) | 23.6 to 36.8 µM |

* * *

- Tested on: B. subtilis (ATCC 6633)
- PROTOCOL_DETAILS: Antibacterial agar diffusion method (inhibition zone)
- Assay type: cell-based
Known IZ (mm) of a selection of molecules

| MOLECULE | IZ (mm) |
| --- | --- |
| COC(=O)C1=C(C)OC(N)=C(C#N)C1c1cccc(O)c1Cl (stereo not drawn) | 19.50 |
| CCOC(=O)C1=C(C)OC(N)=C(C#N)C1c1cccc(-c2ccccc2)c1 (stereo not drawn) | 20.50 |
| CCOC(=O)C1=C(C)OC(N)=C(C#N)C1c1cccc(OC)c1[N+](=O)[O-] (stereo not drawn) | 19.50 |
